The reported measurements were obtained from ChEMBL document CHEMBL2429754.

# Tested on: 4T1
# EXPERIMENT_SUMMARY: Induction of apoptosis in mouse 4T1 cells after 72 hrs using propidium iodide staining byflow cytometry analysis
# Format: functional, cell-based
# CONDITION_PARAMETERS: 4T1, 72 h
RESULT_TYPE: IC50 (nM)
Numbers only, in nM.

response.value for CNC(=O)c1ccccc1Nc1cc(Nc2ccc(N3CCOCC3)cc2OC)ncc1C(F)(F)F (field: IC50) = 100
